# Tested on: Glutamate receptor ionotropic, NMDA 3A (GRIN3A) ligand-binding domain
# assay.text: binders of NR3A ligand-binding domain, primary screen, biophysical, differential scanning fluorimetry, uHTS (AID 1259313)
# stated.conditions: NR3A LBD differential scanning fluorimetry, at 25 µM, stronger effect = higher value, 0% = protein alone, 100% = glycine-bound protein
The campaign covered roughly 340,000 compounds. About 8,500 (2.5%) were called active. Shown is part of a subset that was picked to be rich in actives.
assay.readout: Tm shift relative to glycine control (%)
Give bare numbers, in %.

Some solved cases for reference:
| compound | assay.readout | test.result |
| --- | --- | --- |
| CCNc1nc(N)nc(-c2cc(Cl)ccc2OC)n1 | Tm shift relative to glycine control | 1.29 |
| O=C(Nc1ccc2oc(-c3ccccc3F)nc2c1)c1ccco1 | Tm shift relative to glycine control | -4.92 |
| COc1cc(/C=C/C(=O)OCC(=O)Nc2cccc(Oc3ccccc3)c2)ccc1O | Tm shift relative to glycine control | 16.3 |
| O=C(Nc1ccnc(-c2ccncc2)n1)c1cccs1 | Tm shift relative to glycine control | -0.64 |
| CCCOc1ccc(/C=N/NC(=O)C2CC2)c(OCCC)c1 | Tm shift relative to glycine control | 0.85 |
| O=C(Nc1ccc(C(=O)O)cc1)/C(=C/c1ccc([N+](=O)[O-])cc1)NC(=O)c1ccccc1 | Tm shift relative to glycine control | 0.77 |
| COc1cc([N+](=O)[O-])ccc1NC(=O)COC(=O)CCOc1ccc(C)cc1 | Tm shift relative to glycine control | 2.57 |
| O=C(O)C1CCCCC1C(=O)N1CCN(S(=O)(=O)c2ccc(F)cc2)CC1 (stereo unspecified) | Tm shift relative to glycine control | 14.4 |
| Cc1cc(NS(=O)(=O)c2ccc(NC(=S)NC(=O)c3ccc(F)cc3Cl)cc2)no1 | Tm shift relative to glycine control | 0.87 |
| O=C1NC(c2ccc(-c3ccccc3[N+](=O)[O-])o2)C(C(=O)c2ccc(Cl)cc2)C(O)(C(F)(F)F)N1 (stereo unspecified) | Tm shift relative to glycine control | -17.2 |

Below are 7 compounds. Give each one its Tm shift relative to glycine control.
1. O=C(C[n+]1ccc2c(c1)nnn2-c1ccccc1)c1ccc(Cl)cc1
2. Cc1ccc(C(=O)NC2CCCC(C)C2C)cc1S(=O)(=O)N1CCCCC1 (stereo unspecified)
3. Cc1ccc(S(=O)(=O)N2CC(O)C[C@H]2C(=O)OCC(=O)Nc2ccc(N3CCOCC3)cc2)cc1C (stereo partly specified)
4. CC1(C)CC(CNCCC(c2ccc(F)cc2)c2ccco2)CCO1 (stereo unspecified)
5. COc1ccc(C)cc1-n1nnnc1SCc1nc2ccccc2c(=O)[nH]1
6. O=C(Nc1cccc(S(=O)(=O)NC2=NCCC2)c1)c1ccc(F)cc1F
7. O=S(=O)(c1ccc(F)cc1)N1CCN(C(=S)NC2CCCC2)CC1

1. -2.3
2. 20.8
3. 1.27
4. 0.16
5. 0.31
6. 0.09
7. 1.46
